# System: NEK2 (human)
# Assay Conditions: compound 1.0 µM
Experimental Endpoint: per cent of control (%)
// units = %; emit number, no label

These recorded examples may help you get a feel for the data.
# Structure As Smiles, per cent of control (%)
rows = [
    ("COC(=O)Nc1ccc(-c2nc(N3CCOCC3)c3cnn(C4CCN(C(=O)OC)CC4)c3n2)cc1", 93),
    ("COc1ccc(-c2ccc3c(N4CCOCC4)nc(N4C[C@@H](C)O[C@@H](C)C4)nc3n2)cc1CO", 92),
    ("CCC(=O)N1CCN(c2ccc(-n3c(=O)ccc4cnc5ccc(-c6cnc7ccccc7c6)cc5c43)cc2C(F)(F)F)CC1", 88),
]

Let us examine a further case.
Q. Please report per cent of control for the following molecule: CC(C)n1nc(-c2cc3cc(O)ccc3[nH]2)c2c(N)ncnc21
A. 86

====

# System: RPS6KA1 KD2 (human) (UniProt Q15418)
# Sequence (Q15418 whole entry, looked up): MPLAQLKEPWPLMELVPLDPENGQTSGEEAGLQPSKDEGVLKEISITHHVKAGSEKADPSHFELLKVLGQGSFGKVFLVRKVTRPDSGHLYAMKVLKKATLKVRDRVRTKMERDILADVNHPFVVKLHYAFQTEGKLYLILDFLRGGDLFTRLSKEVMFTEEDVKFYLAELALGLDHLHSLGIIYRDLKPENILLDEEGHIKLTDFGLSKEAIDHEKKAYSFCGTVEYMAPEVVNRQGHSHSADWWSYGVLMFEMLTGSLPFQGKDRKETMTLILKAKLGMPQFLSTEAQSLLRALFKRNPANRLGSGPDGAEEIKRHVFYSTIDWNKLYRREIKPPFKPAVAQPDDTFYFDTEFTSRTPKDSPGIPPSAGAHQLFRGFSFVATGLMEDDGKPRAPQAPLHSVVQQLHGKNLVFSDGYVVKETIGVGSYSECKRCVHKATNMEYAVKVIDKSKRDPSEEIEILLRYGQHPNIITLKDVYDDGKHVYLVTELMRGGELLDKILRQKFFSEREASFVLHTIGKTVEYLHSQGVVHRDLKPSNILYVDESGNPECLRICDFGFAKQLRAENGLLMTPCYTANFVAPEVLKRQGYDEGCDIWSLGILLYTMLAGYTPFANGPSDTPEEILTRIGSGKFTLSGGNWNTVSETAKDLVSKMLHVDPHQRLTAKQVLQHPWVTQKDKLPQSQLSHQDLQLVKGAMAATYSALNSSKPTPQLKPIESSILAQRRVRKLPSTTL
# Method Notes: KINOMEscan competition binding
# Assay Conditions: compound 10.0 µM
Experimental Endpoint: kinase still bound, per cent of control (%)
// units = %; emit number, no label

These recorded examples may help you get a feel for the data.
# Structure As Smiles, Unit, kinase still bound, per cent of control
data = [
    ("CCC(=O)N1CCN(c2ccc(-n3c(=O)ccc4cnc5ccc(-c6cnc7ccccc7c6)cc5c43)cc2C(F)(F)F)CC1", "%", 100),
    ("CC(C)n1nc(-c2cc3cc(O)ccc3[nH]2)c2c(N)ncnc21", "%", 46),
    ("COC(=O)Nc1ccc(-c2nc(N3CCOCC3)c3cnn(C4CCN(C(=O)OC)CC4)c3n2)cc1", "%", 100),
]

Q. Please report kinase still bound, per cent of control for the following compound: COc1ccc(-c2ccc3c(N4CCOCC4)nc(N4C[C@@H](C)O[C@@H](C)C4)nc3n2)cc1CO
A. 100

====

Recorded measurements of per cent of control, one per entry
# System: DYRK2 (human) (UniProt Q92630)
# Sequence (Q92630 whole entry, looked up): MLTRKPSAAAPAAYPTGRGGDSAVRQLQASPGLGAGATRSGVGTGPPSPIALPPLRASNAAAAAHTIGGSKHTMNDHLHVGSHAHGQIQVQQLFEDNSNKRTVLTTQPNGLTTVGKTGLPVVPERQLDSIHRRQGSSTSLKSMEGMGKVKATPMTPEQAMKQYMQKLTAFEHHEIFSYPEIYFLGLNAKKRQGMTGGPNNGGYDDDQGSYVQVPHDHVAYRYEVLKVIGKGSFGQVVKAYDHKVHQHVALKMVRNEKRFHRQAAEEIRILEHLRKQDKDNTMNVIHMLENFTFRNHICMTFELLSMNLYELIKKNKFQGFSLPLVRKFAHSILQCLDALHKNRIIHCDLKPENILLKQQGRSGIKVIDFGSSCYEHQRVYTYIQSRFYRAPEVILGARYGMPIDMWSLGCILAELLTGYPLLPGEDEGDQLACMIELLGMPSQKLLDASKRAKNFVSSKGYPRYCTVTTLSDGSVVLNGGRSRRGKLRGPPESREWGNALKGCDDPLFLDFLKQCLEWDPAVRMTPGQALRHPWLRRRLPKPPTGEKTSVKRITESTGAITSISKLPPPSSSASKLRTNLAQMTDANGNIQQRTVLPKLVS
# Assay Conditions: compound 10.0 µM
// units = %; emit number, no label

These recorded examples may help you get a feel for the data.
# Structure As Smiles, Experimental Endpoint, Unit, Data Value
data = [
    ("COc1ccc(-c2ccc3c(N4CCOCC4)nc(N4C[C@@H](C)O[C@@H](C)C4)nc3n2)cc1CO", "per cent of control", "%", 96),
    ("CC(C)n1nc(-c2cc3cc(O)ccc3[nH]2)c2c(N)ncnc21", "per cent of control", "%", 7),
    ("CCC(=O)N1CCN(c2ccc(-n3c(=O)ccc4cnc5ccc(-c6cnc7ccccc7c6)cc5c43)cc2C(F)(F)F)CC1", "per cent of control", "%", 99),
]

Q. Please report per cent of control for the following molecule: COC(=O)Nc1ccc(-c2nc(N3CCOCC3)c3cnn(C4CCN(C(=O)OC)CC4)c3n2)cc1
A. 96

====

Recorded measurements of kinase still bound, per cent of control, one per entry
# System: ULK2 (human)
# Method Notes: KINOMEscan competition binding
# Assay Conditions: compound 10.0 µM
// units = %; emit number, no label

These recorded examples may help you get a feel for the data.
# Structure As Smiles, kinase still bound, per cent of control (%)
data = [
    ("CC(C)n1nc(-c2cc3cc(O)ccc3[nH]2)c2c(N)ncnc21", 39),
    ("COC(=O)Nc1ccc(-c2nc(N3CCOCC3)c3cnn(C4CCN(C(=O)OC)CC4)c3n2)cc1", 99),
    ("COc1ccc(-c2ccc3c(N4CCOCC4)nc(N4C[C@@H](C)O[C@@H](C)C4)nc3n2)cc1CO", 100),
]

Q. Please report kinase still bound, per cent of control for the following compound: CCC(=O)N1CCN(c2ccc(-n3c(=O)ccc4cnc5ccc(-c6cnc7ccccc7c6)cc5c43)cc2C(F)(F)F)CC1
A. 75

====

# System: MAPKAPK5 (human)
# Method Notes: KINOMEscan competition binding
# Assay Conditions: compound 10.0 µM
Recorded measurements of kinase still bound, per cent of control, one per entry
// units = %; emit number, no label

# Structure As Smiles, System, Unit, kinase still bound, per cent of control
records = [
    ("COC(=O)Nc1ccc(-c2nc(N3CCOCC3)c3cnn(C4CCN(C(=O)OC)CC4)c3n2)cc1", "MAPKAPK5 (human)", "%", 100),
    ("COc1ccc(-c2ccc3c(N4CCOCC4)nc(N4C[C@@H](C)O[C@@H](C)C4)nc3n2)cc1CO", "MAPKAPK5 (human)", "%", 77),
    ("CC(C)n1nc(-c2cc3cc(O)ccc3[nH]2)c2c(N)ncnc21", "MAPKAPK5 (human)", "%", 86),
]

Let us examine a further case.
Q. Supply kinase still bound, per cent of control measured with MAPKAPK5 (human) for CCC(=O)N1CCN(c2ccc(-n3c(=O)ccc4cnc5ccc(-c6cnc7ccccc7c6)cc5c43)cc2C(F)(F)F)CC1 .
A. 100

====

Recorded measurements of per cent of control, one per entry
# System: UniProt:P41240
# Sequence (P41240 whole entry, looked up): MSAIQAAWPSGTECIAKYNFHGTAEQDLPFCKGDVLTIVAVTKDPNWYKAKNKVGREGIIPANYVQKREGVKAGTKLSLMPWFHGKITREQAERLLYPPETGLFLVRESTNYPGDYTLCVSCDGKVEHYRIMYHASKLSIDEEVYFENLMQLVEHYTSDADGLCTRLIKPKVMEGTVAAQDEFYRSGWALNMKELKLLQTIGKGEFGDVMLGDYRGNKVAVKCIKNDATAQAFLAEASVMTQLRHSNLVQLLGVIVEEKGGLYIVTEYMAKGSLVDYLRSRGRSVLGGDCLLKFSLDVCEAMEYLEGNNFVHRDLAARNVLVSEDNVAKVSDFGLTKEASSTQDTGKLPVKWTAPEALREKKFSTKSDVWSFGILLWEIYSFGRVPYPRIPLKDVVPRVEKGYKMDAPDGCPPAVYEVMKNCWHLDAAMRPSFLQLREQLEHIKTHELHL
# Assay Conditions: compound 1.0 µM
// units = %; emit number, no label

# Structure As Smiles, per cent of control, %
measured = [
    ("COc1ccc(-c2ccc3c(N4CCOCC4)nc(N4C[C@@H](C)O[C@@H](C)C4)nc3n2)cc1CO", 90),
    ("COC(=O)Nc1ccc(-c2nc(N3CCOCC3)c3cnn(C4CCN(C(=O)OC)CC4)c3n2)cc1", 113),
    ("CC(C)n1nc(-c2cc3cc(O)ccc3[nH]2)c2c(N)ncnc21", 52),
]

Q. Please report per cent of control for the following compound: CCC(=O)N1CCN(c2ccc(-n3c(=O)ccc4cnc5ccc(-c6cnc7ccccc7c6)cc5c43)cc2C(F)(F)F)CC1
A. 101

====

Recorded measurements of kinase still bound, per cent of control, one per entry
# System: MARK3 (human)
# Method Notes: KINOMEscan competition binding
# Assay Conditions: compound 10.0 µM
// units = %; emit number, no label

These recorded examples may help you get a feel for the data.
# Structure As Smiles, System, Unit, kinase still bound, per cent of control
rows = [
    ("CCC(=O)N1CCN(c2ccc(-n3c(=O)ccc4cnc5ccc(-c6cnc7ccccc7c6)cc5c43)cc2C(F)(F)F)CC1", "MARK3 (human)", "%", 100),
    ("COC(=O)Nc1ccc(-c2nc(N3CCOCC3)c3cnn(C4CCN(C(=O)OC)CC4)c3n2)cc1", "MARK3 (human)", "%", 100),
    ("CC(C)n1nc(-c2cc3cc(O)ccc3[nH]2)c2c(N)ncnc21", "MARK3 (human)", "%", 100),
]

Q. Please report kinase still bound, per cent of control for the following molecule: COc1ccc(-c2ccc3c(N4CCOCC4)nc(N4C[C@@H](C)O[C@@H](C)C4)nc3n2)cc1CO
A. 96

====

# System: EPHB6 (human) (UniProt O15197)
# Sequence (O15197 whole entry, looked up): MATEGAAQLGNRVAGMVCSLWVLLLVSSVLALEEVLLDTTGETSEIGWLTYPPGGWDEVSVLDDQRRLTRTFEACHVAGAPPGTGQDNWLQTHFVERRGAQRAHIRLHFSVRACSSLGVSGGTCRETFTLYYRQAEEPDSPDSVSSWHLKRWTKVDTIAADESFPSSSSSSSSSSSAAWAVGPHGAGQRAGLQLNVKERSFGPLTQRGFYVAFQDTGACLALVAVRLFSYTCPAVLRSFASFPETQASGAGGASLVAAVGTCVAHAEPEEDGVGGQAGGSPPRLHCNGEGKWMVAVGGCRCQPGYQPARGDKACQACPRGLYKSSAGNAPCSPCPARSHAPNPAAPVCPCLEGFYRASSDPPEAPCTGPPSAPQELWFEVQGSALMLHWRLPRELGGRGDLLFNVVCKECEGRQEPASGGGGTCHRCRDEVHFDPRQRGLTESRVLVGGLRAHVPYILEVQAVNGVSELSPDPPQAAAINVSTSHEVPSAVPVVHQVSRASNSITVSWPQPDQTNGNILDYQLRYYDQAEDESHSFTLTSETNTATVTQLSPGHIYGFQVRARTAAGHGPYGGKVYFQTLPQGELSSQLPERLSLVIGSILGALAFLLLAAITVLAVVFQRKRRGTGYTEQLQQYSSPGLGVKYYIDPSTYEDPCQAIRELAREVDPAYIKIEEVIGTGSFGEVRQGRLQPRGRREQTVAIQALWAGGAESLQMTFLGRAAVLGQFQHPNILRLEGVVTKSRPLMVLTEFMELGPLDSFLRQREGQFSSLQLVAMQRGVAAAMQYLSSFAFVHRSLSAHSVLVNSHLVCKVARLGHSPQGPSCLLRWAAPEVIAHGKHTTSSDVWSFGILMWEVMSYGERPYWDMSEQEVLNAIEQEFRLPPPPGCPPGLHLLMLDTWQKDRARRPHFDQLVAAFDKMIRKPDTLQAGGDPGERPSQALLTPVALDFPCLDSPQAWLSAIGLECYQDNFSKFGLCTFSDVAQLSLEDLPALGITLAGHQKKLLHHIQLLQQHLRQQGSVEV
# Method Notes: KINOMEscan competition binding
# Assay Conditions: compound 10.0 µM
Experimental Endpoint: kinase still bound, per cent of control

# Structure As Smiles, kinase still bound, per cent of control
data = [
    ("CC(C)n1nc(-c2cc3cc(O)ccc3[nH]2)c2c(N)ncnc21", "5.3%"),
    ("COc1ccc(-c2ccc3c(N4CCOCC4)nc(N4C[C@@H](C)O[C@@H](C)C4)nc3n2)cc1CO", "83%"),
    ("COC(=O)Nc1ccc(-c2nc(N3CCOCC3)c3cnn(C4CCN(C(=O)OC)CC4)c3n2)cc1", "97%"),
]

Let us examine a further case.
Q. Please report kinase still bound, per cent of control for the following molecule: CCC(=O)N1CCN(c2ccc(-n3c(=O)ccc4cnc5ccc(-c6cnc7ccccc7c6)cc5c43)cc2C(F)(F)F)CC1
A. 80%

====

# System: PLK1 (human) (UniProt P53350)
# Sequence (P53350 whole entry, looked up): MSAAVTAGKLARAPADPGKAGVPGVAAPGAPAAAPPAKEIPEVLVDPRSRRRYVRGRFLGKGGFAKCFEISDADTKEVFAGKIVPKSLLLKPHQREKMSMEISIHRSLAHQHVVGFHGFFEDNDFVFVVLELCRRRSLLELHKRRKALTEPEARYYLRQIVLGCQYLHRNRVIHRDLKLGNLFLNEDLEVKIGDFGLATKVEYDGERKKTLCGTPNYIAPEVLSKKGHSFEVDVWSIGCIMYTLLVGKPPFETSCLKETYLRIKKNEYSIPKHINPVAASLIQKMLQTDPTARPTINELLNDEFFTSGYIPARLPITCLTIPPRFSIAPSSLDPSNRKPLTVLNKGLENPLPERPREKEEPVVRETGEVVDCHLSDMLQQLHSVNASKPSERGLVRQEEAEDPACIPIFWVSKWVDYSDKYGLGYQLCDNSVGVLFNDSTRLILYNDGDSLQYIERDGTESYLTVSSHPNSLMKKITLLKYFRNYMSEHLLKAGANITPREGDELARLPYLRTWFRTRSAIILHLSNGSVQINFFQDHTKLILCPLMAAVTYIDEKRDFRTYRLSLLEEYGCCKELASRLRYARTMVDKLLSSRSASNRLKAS
# Assay Conditions: compound 10.0 µM
Recorded measurements of per cent of control, one per entry
Your reply should be a number followed by the unit it is expressed in.

These recorded examples may help you get a feel for the data.
# Structure As Smiles, per cent of control
records = [
    ("COC(=O)Nc1ccc(-c2nc(N3CCOCC3)c3cnn(C4CCN(C(=O)OC)CC4)c3n2)cc1", "88%"),
    ("CC(C)n1nc(-c2cc3cc(O)ccc3[nH]2)c2c(N)ncnc21", "47%"),
    ("COc1ccc(-c2ccc3c(N4CCOCC4)nc(N4C[C@@H](C)O[C@@H](C)C4)nc3n2)cc1CO", "94%"),
]

Let us examine a further case.
Q. Supply per cent of control measured with PLK1 (human) (UniProt P53350) for CCC(=O)N1CCN(c2ccc(-n3c(=O)ccc4cnc5ccc(-c6cnc7ccccc7c6)cc5c43)cc2C(F)(F)F)CC1 .
A. 84%

====

# System: NEK2 (human)
# Assay Conditions: compound 10.0 µM
Recorded measurements of per cent of control, one per entry
// units = %; emit number, no label

These recorded examples may help you get a feel for the data.
# Structure As Smiles, per cent of control, %
data = [
    ("CC(C)n1nc(-c2cc3cc(O)ccc3[nH]2)c2c(N)ncnc21", 54),
    ("COc1ccc(-c2ccc3c(N4CCOCC4)nc(N4C[C@@H](C)O[C@@H](C)C4)nc3n2)cc1CO", 86),
    ("COC(=O)Nc1ccc(-c2nc(N3CCOCC3)c3cnn(C4CCN(C(=O)OC)CC4)c3n2)cc1", 101),
]

Let us examine a further case.
Q. Please report per cent of control for the following molecule: CCC(=O)N1CCN(c2ccc(-n3c(=O)ccc4cnc5ccc(-c6cnc7ccccc7c6)cc5c43)cc2C(F)(F)F)CC1
A. 99
